These measurements were taken from paper PMC5540273.

Tested on: MAP3K2;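 note: KINOMEscan kinase panel screen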
Settings: concentration: 1 μM, replicates: in singlicate; n = 1
Reported %Inh values for the following molecules.

- molecule: "c1ccc(Oc2ccc(Nc3ccnc4cc(-c5ccc(CN6CCCCC6)o5)ccc34)cc2)nc1"
  reading.unit: "%"
  %Inh: 0
- molecule: "CN(c1ccc2c(c1)nc(NCc1ccccc1)n2C)c1ccnc(Nc2ccc(CS(C)(=O)=O)cc2)n1.Cl"
  reading.unit: "%"
  %Inh: 0
- molecule: "CN(c1ccc(NC(=O)Nc2cccc(Cl)c2)cc1)c1ccnc(N)n1.Cl"
  reading.unit: "%"
  %Inh: 0
- molecule: "NCCC(NC(=O)c1cc(Br)c(-c2ccnc3[nH]ccc23)s1)c1ccccc1.O=C(O)C(F)(F)F.O=C(O)C(F)(F)F (centres unmarked)"
  reading.unit: "%"
  %Inh: 38
- molecule: "COc1cccc(-c2nc(-c3ccccc3)[nH]c2-c2ccncc2)c1"
  reading.unit: "%"
  %Inh: 9
- molecule: "COc1cc(Nc2nccc(N3CCC(NS(=O)(=O)c4ccc(NC(C)=O)cc4)CC3)n2)cc(OC)c1OC"
  reading.unit: "%"
  %Inh: 18
- molecule: "Cc1ccc(-c2ccc3occ(-c4ccc(S(C)=O)cc4)c3c2)nn1 (centres unmarked)"
  reading.unit: "%"
  %Inh: 0
- molecule: "Cc1cccc(Nc2nc(N[C@H]3CCCC[C@H]3N)ncc2C(N)=O)c1.Cl"
  reading.unit: "%"
  %Inh: 84
